System: CYP2C8 (Homo sapiens, UniProt P10632)
Construct: V5-His (vector-encoded) (C); expressed in transfected cells
Sequence (P10632 1-490): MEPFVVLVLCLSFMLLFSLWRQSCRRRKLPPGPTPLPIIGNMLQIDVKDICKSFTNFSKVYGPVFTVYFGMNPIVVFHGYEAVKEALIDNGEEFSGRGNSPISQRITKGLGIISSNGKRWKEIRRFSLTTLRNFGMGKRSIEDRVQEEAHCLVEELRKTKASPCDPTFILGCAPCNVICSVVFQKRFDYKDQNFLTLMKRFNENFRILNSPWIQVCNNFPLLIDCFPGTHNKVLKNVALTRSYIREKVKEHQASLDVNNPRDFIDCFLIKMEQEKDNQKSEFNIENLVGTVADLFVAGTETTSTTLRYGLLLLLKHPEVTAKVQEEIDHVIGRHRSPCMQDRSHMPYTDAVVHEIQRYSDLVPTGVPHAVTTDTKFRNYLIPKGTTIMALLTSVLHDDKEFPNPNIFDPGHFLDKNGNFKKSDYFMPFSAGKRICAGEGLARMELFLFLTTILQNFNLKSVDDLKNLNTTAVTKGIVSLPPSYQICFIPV
Assay explanation: Metabolism in transgenic HEK293 cells expressing CYP2C8
Assay type: in vitro ADME
Cond: CYP2C8 Clone A3; 20 µM parent PCB, 24 h, supernatant
Property: Quantification of metabolites generated from PCB28, 52, and 101

Oc1cc(Cl)c(-c2ccc(Cl)cc2)cc1Cl [4-OHCB31, 2,4′,5-trichloro-4-biphenylol] = <LOQ
Oc1cc(Cl)cc(-c2cc(Cl)ccc2Cl)c1Cl [3-OHCB52, 2,2′,5,5′-tetrachloro-3-biphenylol] = <LOQ
Oc1cc(-c2ccc(Cl)cc2)c(Cl)cc1Cl [5-OHCB28, 2,4,4′-trichloro-5-biphenylol] = <LOQ
Oc1cc(Cl)c(-c2cc(Cl)ccc2Cl)cc1Cl [4-OHCB52, 2,2′,5,5′-tetrachloro-4-biphenylol] = <LOQ

---

System: CYP3A4 (Homo sapiens, UniProt P08684)
Sequence (P08684 whole entry): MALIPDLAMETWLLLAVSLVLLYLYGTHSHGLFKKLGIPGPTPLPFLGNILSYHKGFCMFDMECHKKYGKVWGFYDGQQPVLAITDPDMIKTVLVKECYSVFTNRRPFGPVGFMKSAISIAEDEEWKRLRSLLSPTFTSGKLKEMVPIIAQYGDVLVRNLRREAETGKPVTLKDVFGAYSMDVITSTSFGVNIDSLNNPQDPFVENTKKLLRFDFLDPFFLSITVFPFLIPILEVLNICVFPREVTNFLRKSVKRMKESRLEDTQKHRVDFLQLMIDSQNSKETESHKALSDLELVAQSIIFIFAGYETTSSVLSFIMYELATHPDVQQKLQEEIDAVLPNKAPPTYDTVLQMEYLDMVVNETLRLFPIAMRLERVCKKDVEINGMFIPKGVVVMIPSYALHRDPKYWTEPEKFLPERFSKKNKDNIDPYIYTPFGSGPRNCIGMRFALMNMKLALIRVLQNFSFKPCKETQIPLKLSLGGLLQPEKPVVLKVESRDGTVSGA
Assay explanation: Metabolism in transgenic HEK293 cells expressing CYP3A4
Cond: CYP3A4 Clone E6; 20 µM parent PCB, 24 h, supernatant
Property: Quantification of metabolites generated from PCB28, 52, and 101

Example entries and their recorded answers appear below.
Oc1cc(Cl)cc(-c2cc(Cl)ccc2Cl)c1Cl = 0,45 nM
Oc1cc(Cl)c(-c2ccc(Cl)cc2)cc1Cl = <LOQ
Oc1cc(Cl)cc(-c2cc(Cl)c(Cl)cc2Cl)c1Cl = <LOQ
Oc1cc(Cl)c(-c2cc(Cl)ccc2Cl)cc1Cl = 0,54 nM
Oc1cc(-c2ccc(Cl)cc2)c(Cl)cc1Cl = <LOQ

Then there is this compound:
For reference, reported Quantification of metabolites generated from PCB28, 52, and 101 for "Oc1cc(Cl)c(-c2cc(Cl)c(Cl)cc2Cl)cc1Cl" stands at <LOQ

---

Assay explanation: PCB concentrations in plasma of HELPcB participants (2010)
Type: in vivo, human
Cond: human, plasma, other: occupational exposure, HELPcB participant AD, sample of 2010
A collection of molecules and their measured concentration at 2010 calendar year
Mention the unit after the number when you answer.

Would you please look over these solved cases?
Clc1ccc(Cl)c(-c2cc(Cl)c(Cl)cc2Cl)c1 = 0.073 ng/mL
Clc1cc(Cl)c(-c2cc(Cl)c(Cl)c(Cl)c2Cl)cc1Cl = 1.16 ng/mL
Clc1ccc(-c2ccc(Cl)cc2Cl)cc1 = 0.823 ng/mL

concentration at 2010 calendar year for "Clc1ccc(Cl)c(-c2cc(Cl)ccc2Cl)c1" is 0.026 ng/mL

The origin of these recorded values is paper PMC11489226.
